# Tested on: Acinetobacter caloaceticus A-6
# measurement protocol: Minimum inhibitory concentration (MIC), Heart Infusion agar
# Assay type: cell-based
# stated conditions: A6; Acinetobacter caloaceticus A-6; 10^6 cells/ml; 20 hours, 37° C.; read-out: minimum inhibitory concentration (MIC)
property name: MIC (µg/mL)

So what does the record say about MIC for CCN1CCN(C(=O)NC(C(=O)N[C@]2(OC)C(=O)N3C(C(=O)O)=C(CSc4nncs4)CS[C@@H]32)c2cccs2)C(=O)C1=O (stereo partly drawn) ? 12.5

Reported MIC, compound CCN1CCN(C(=O)NC(C(=O)N[C@]2(OC)C(=O)N3C(C(=O)O)=C(CSc4nnnn4CC(N)=O)CS[C@@H]32)c2csc(N)n2)C(=O)C1=O (stereo partly drawn) : ____ 12.5

# query: MIC of entry CCN1CCN(C(=O)NC(C(=O)N[C@]2(OC)C(=O)N3C(C(=O)O)=C(CSc4nnnn4CC(=O)NO)CS[C@@H]32)c2cccs2)C(=O)C1=O (stereo partly drawn) 1.56

P: CCN1CCN(C(=O)NC(C(=O)N[C@]2(OC)C(=O)N3C(C(=O)O)=C(COC(C)=O)CS[C@@H]32)c2csc(N)n2)C(=O)C1=O (stereo partly drawn) [OCOCH3]
Q: CCN1CCN(C(=O)NC(C(=O)N[C@]2(OC)C(=O)N3C(C(=O)O)=C(CSc4nnnn4CCO)CS[C@@H]32)c2cccs2)C(=O)C1=O (stereo partly drawn)
Of the two listed items, which has the higher MIC? First: P Second: Q Write down the label attached to your selection. P
(P: 25 µg/mL, Q: 6.25 µg/mL)

These measurements were taken from patent US4321265A.
